experiment: Cytotoxicity to murine macrophages (WST-1); type: cell-based; conditions: mouse, J774 murine macrophage cells, read-out: CC50 Murine Macrophage (Cell Line J774)
The reader will find reported CC50 at 24 h values listed item by item below.

{"COMPOUND": "CC(=O)O[C@H]1CC[C@@]2(C)[C@@H](CC[C@@H]3[C@@H]2CC[C@]2(C)C(=O)[C@H](Br)C[C@@H]32)C1 [Compound 2]", "CMP": "=", "CC50 at 24 h (µM)": 42}
{"COMPOUND": "C[C@]12CC[C@H](O)CC1=CC[C@@H]1[C@@H]2CC[C@]2(C)C(=O)C(O)C[C@@H]12 (some centres unmarked) [Compound 7]", "CMP": ">", "CC50 at 24 h (µM)": 24}
{"COMPOUND": "CC1CS(=O)(=O)CCN1/N=C/c1ccc([N+](=O)[O-])o1 (centres unmarked) [Nifurtimox, reference compound]", "CMP": "=", "CC50 at 24 h (µM)": 140}
{"COMPOUND": "CC(=O)O[C@H]1CC[C@@]2(C)C(=CC[C@@H]3[C@@H]2CC[C@]2(C)C(=O)[C@@H](Br)C[C@@H]32)C1 [Compound 6]", "CMP": "=", "CC50 at 24 h (µM)": 4.5}
{"COMPOUND": "C[C@]12CC[C@H](O)CC1=CC[C@@H]1[C@@H]2CC[C@]2(C)C(=O)[C@H](Br)C[C@@H]12 [Compound 4]", "CMP": "=", "CC50 at 24 h (µM)": 19}

---

system: T. cruzi epimastigotes (strain DM28); test: Cell viability of T. cruzi epimastigotes (propidium iodide, flow cytometry); settings: Trypanosoma cruzi, 72 h, read-out: % Cytotoxicity (50 µM) T. Cruzi Epimastigote Form, 50 µM, 72 h

{"MOLECULE": "CC(=O)O[C@H]1CC[C@@]2(C)C(=CC[C@@H]3[C@@H]2CC[C@]2(C)C(=O)[C@@H](Br)C[C@@H]32)C1 [Compound 6]", "cytotoxicity at 50 µM, %": 76}
{"MOLECULE": "CC(=O)O[C@H]1CC[C@@]2(C)C(=CC[C@@H]3[C@@H]2CC[C@]2(C)C(=O)[C@H](Br)C[C@@H]32)C1 [Compound 5]", "cytotoxicity at 50 µM, %": 30.9}
{"MOLECULE": "CC(=O)O[C@H]1CC[C@@]2(C)[C@@H](CC[C@@H]3[C@@H]2CC[C@]2(C)C(=O)[C@@H](Br)C[C@@H]32)C1 [Compound 3]", "cytotoxicity at 50 µM, %": 74}
{"MOLECULE": "C[C@]12CC[C@H](O)CC1=CC[C@@H]1[C@@H]2CC[C@]2(C)C(=O)C(O)C[C@@H]12 (stereo partly shown) [Compound 7]", "cytotoxicity at 50 µM, %": 3.9}
{"MOLECULE": "CC(=O)O[C@H]1CC[C@@]2(C)[C@@H](CC[C@@H]3[C@@H]2CC[C@]2(C)C(=O)[C@H](Br)C[C@@H]32)C1 [Compound 2]", "cytotoxicity at 50 µM, %": 64}
{"MOLECULE": "C[C@]12CC[C@H](O)C[C@@H]1CC[C@@H]1[C@@H]2CC[C@]2(C)C(=O)[C@H](Br)C[C@@H]12 [Compound 1, 16α-bromo-epiandrosterone]", "cytotoxicity at 50 µM, %": 15}
{"MOLECULE": "C[C@]12CC[C@H](O)CC1=CC[C@@H]1[C@@H]2CC[C@]2(C)C(=O)[C@H](Br)C[C@@H]12 [Compound 4]", "cytotoxicity at 50 µM, %": 6.4}

---

Reported CC50 at 24 h values follow for various molecules
test: Cytotoxicity to murine macrophages (WST-1); assay type: cell-based; conditions: mouse, J774 murine macrophage cells, read-out: CC50 Murine Macrophage (Cell Line J774)

{"MOLECULE": "CC(=O)O[C@H]1CC[C@@]2(C)[C@@H](CC[C@@H]3[C@@H]2CC[C@]2(C)C(=O)[C@@H](Br)C[C@@H]32)C1", "MEASURE_UNIT": "µM", "CC50 at 24 h": 0.96}
{"MOLECULE": "C[C@]12CC[C@H](O)C[C@@H]1CC[C@@H]1[C@@H]2CC[C@]2(C)C(=O)[C@H](Br)C[C@@H]12 [Compound 1, 16α-bromo-epiandrosterone]", "MEASURE_UNIT": "µM", "CC50 at 24 h": 8.8}
{"MOLECULE": "CC(=O)O[C@H]1CC[C@@]2(C)C(=CC[C@@H]3[C@@H]2CC[C@]2(C)C(=O)[C@H](Br)C[C@@H]32)C1", "MEASURE_UNIT": "µM", "CC50 at 24 h": 39}

---

molecular target: T. cruzi G6PDH (Trypanosoma cruzi); experiment: biochemical; assay type: biochemical
Sequence (Q4E0B2 entry or part of it): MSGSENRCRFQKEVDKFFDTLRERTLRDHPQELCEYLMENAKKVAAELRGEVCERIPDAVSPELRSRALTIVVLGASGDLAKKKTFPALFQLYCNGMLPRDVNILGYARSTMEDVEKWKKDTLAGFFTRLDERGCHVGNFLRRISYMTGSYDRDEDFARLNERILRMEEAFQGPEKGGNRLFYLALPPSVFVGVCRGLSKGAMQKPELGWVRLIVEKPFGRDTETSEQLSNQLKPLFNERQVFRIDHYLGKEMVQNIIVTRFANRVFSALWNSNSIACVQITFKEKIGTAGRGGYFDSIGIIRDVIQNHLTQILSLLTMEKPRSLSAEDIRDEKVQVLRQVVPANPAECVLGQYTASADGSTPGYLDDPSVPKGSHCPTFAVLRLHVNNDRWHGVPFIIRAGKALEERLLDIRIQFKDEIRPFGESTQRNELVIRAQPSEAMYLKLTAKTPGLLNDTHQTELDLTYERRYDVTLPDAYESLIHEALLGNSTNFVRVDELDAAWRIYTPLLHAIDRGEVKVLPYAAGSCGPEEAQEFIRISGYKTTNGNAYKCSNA
OBSERVED_PROPERTY: IC50 (nM)

{"CHEMICAL_STRING": "CC(=O)O[C@H]1CC[C@@]2(C)C(=CC[C@@H]3[C@@H]2CC[C@]2(C)C(=O)[C@@H](Br)C[C@@H]32)C1", "CMP": ">", "REPORTED_MEASUREMENT": 50000}
{"CHEMICAL_STRING": "CC(=O)O[C@H]1CC[C@@]2(C)[C@@H](CC[C@@H]3[C@@H]2CC[C@]2(C)C(=O)[C@@H](Br)C[C@@H]32)C1", "CMP": "=", "REPORTED_MEASUREMENT": 1500}
{"CHEMICAL_STRING": "CC(=O)O[C@H]1CC[C@@]2(C)[C@@H](CC[C@@H]3[C@@H]2CC[C@]2(C)C(=O)[C@H](Br)C[C@@H]32)C1", "CMP": "=", "REPORTED_MEASUREMENT": 110}
{"CHEMICAL_STRING": "CC(=O)O[C@H]1CC[C@@]2(C)C(=CC[C@@H]3[C@@H]2CC[C@]2(C)C(=O)[C@H](Br)C[C@@H]32)C1", "CMP": "=", "REPORTED_MEASUREMENT": 79}

Data origin: paper PMC7826790
